The reader will find reported solubility thermodynamic at 24 h values listed item by item below.
assay: Thermodynamic solubility of the compound at pH 1.5 after 24 hrs by HPLC analysis; type: physicochemical; conditions: buffer, read-out: Therm_solubility
Reply numerically in µM, unit not repeated.

COc1ccc2nc(C)cc(OCC(=O)Nc3ccc4ccccc4c3)c2c1 | 30
COc1ccc2nc(C)cc(OCC(=O)Nc3ccc(Br)cc3)c2c1 | 30

Give solubility thermodynamic at 24 h for the following molecule: `COc1ccc(NC(=O)COc2cc(C)nc3ccc(OC)cc23)c(OC)c1`
30
